biological target: D(1A) dopamine receptor (Homo sapiens); assay: Antagonist of Human D 1 Dopamine Receptor: qHTS; settings: HEK293 TREx D1 cells, calcium flux, dopamine EC80; at 10 µM; note: % is set by controls: 0 for no effect and ±100 for the full control effect
Hit rate of the full screen: of about 360,000 compounds, about 11,000 (3.1%) were called active. Cut-off read from the data, not from the text of the source: active = activity change below about -30%; inactive = the rest. The sample as a whole holds a higher share of actives than the screen did.
One label from this list, please: T for active, F for inactive

# molecule, label-class
data = [
    ("COc1ccc(F)cc1S(=O)(=O)NCC(c1ccc2c(c1)OCO2)N1CCN(C)CC1 (stereo not given)", "F"),
    ("CCN(CC)CCC(c1ccc2c(c1)OCO2)c1c(OC)cc(OC)c2c(-c3ccccc3)cc(=O)oc12 (stereo not given)", "T"),
    ("CC(=O)Oc1cccc(N2C(=O)CC(Nc3ccc(N4CCOCC4)cc3)C2=O)c1 (stereo not given)", "F"),
    ("COc1ccc(NC(=O)CN2CCCN(Cc3ccccc3)S2(=O)=O)cc1", "F"),
]

Now let's try a different one.
[Q] I'd appreciate the recorded outcome for COc1ccc(C2CC(=O)NC(=O)C2)cc1 from this test.
[A] F

* * *

biological target: D(1A) dopamine receptor (Homo sapiens); experiment: Antagonist of Human D 1 Dopamine Receptor: qHTS; details: HEK293 TREx D1 cells, calcium flux, dopamine EC80; at 10 µM; note: % is set by controls: 0 for no effect and ±100 for the full control effect
Among all 360,000 compounds or so, about 11,000 (3.1%) were called active. Rule as the data show it: active = activity change below about -30%; inactive = the rest. The sample as a whole holds a higher share of actives than the screen did.
One label from this list, please: active, inactive

Observe how each entry below is paired with its result.
# structure-smiles-string, label-class
rows = [
    ("Cc1nc(N2CCOCC2)sc1C(=O)NN", "inactive"),
    ("c1cnn(-c2cc(N3CCOCC3)ncn2)c1", "inactive"),
    ("COc1ccc(-c2cc(C(F)(F)F)n3nc(-c4ccccc4)cc3n2)cc1OC", "inactive"),
    ("CCc1cc2c(cc3c(=O)n(CC(=O)N4CCN(c5cc(Cl)ccc5C)CC4)nc(CC)n32)s1", "inactive"),
    ("Cc1cc(C)cc(NC(=O)c2cnc3sc(N4CCCC4)nn3c2=O)c1", "inactive"),
]

Now let's try a different one.
[Q] I'd appreciate the recorded outcome for CN(CC(=O)NCCc1ccccn1)S(=O)(=O)c1ccc(Cl)cc1 from this test.
[A] active

* * *

target: D(1A) dopamine receptor (Homo sapiens); experiment: Antagonist of Human D 1 Dopamine Receptor: qHTS; conditions: HEK293 TREx D1 cells, calcium flux, dopamine EC80; at 10 µM; hits give low values; note: % is set by controls: 0 for no effect and ±100 for the full control effect
Out of some 360,000 compounds screened, about 11,000 (3.1%) were called active. The full list was thinned out, with actives kept by preference.
property: activity change, negative = inhibition (%)
Unit % implied. Number only.

# compound, experimental-system, property, unit-of-measurement, value
rows = [
    ("COC(=O)[C@]1(C)N[C@H](c2ccc(-c3ccc(Cl)c(Cl)c3)cc2)[C@@H]2C(=O)N(C)C(=O)[C@@H]21", "D(1A) dopamine receptor (Homo sapiens)", "activity change, negative = inhibition", "%", -31.4),
    ("O=C(c1ccc(F)c(S(=O)(=O)N2CCOCC2)c1)N(CCc1ccccc1)Cc1ccccc1", "D(1A) dopamine receptor (Homo sapiens)", "activity change, negative = inhibition", "%", -39.2),
]

Noted for O=[N+]([O-])c1ccccc1OCCCCN1CCCCC1 : its activity change, negative = inhibition reads -54.3

Noted for COc1ccc(C(=O)N(Cc2ccccc2)c2ccc(C)cc2)cc1S(=O)(=O)N1CCOCC1 : its activity change, negative = inhibition reads 8.42

Noted for CC(C)C(NC(=O)c1cccc(S(=O)(=O)N2CCOCC2)c1)C(=O)NCCc1ccccn1 (centres undefined) : its activity change, negative = inhibition reads 10.6

Noted for COC(=O)C1(C)NC(c2ccc(F)cc2)C2C(=O)N(c3ccccc3)C(=O)C21 (centres undefined) : its activity change, negative = inhibition reads 0.925

Noted for COC(=O)C1(C)NC(c2ccc(C)cc2)C2C(=O)N(c3ccc(F)cc3)C(=O)C21 (centres undefined) : its activity change, negative = inhibition reads -8.61

Noted for CC(=O)[C@@]12O[C@@H]1C[C@H]1[C@@H]3CC[C@H]4C[C@@H](O)CC[C@]4(C)[C@H]3CC[C@@]12C : its activity change, negative = inhibition reads -34.5

Noted for CCN(CC(=O)NCc1cccs1)C(=O)c1ccc(OC)c(S(=O)(=O)N2CCOCC2)c1 : its activity change, negative = inhibition reads 2.75
